Property: melting point

Please review the following examples before continuing.
>>> print(df.to_string())
                                   compound       property  experimental_result
0  CCCCCCCCCCCCCCCCn1nnc(C(C(=O)Nc2c(OC)cc(OC)cc2OC)c2ccccc2)n1 (stereo not given)  melting point        134 to 135 °C
1       CCOCC(=O)Nc1c(NCC(C)C)cc(C)n2nnnc12  melting point        182 to 185 °C
2  CC1=C(/C=C/C(C)=C/C=C\c2ccc(C(=O)O)cc2)C(C)(C)CCC1  melting point               179 °C
3  CC(C)(C)c1cc(C=C2SCN(CCO)C2=O)cc(C(C)(C)C)c1O  melting point        131 to 135 °C

Continue with the next compound.
Supply melting point value. Item: COc1c(C=O)ccc(OCC(=O)O)c1Cc1ccc2c(Cl)cccc2c1 191 to 192 °C

* * *

Property: melting point

>>> print(df.to_string())
                                   molecule  experimental_result
0       N#Cc1cnn2c(-c3ccccc3C(F)(F)F)ccnc12        196 to 197 °C
1     COc1cccc(/C=C/C(=O)Nc2ccccc2C(=O)O)c1        183 to 184 °C
2              C=CCNC1=NS(=O)(=O)c2cnccc2N1        206 to 208 °C
3  Cc1ccc(C=NC2CCN(c3cc4c(cc3F)c(=O)c(C(=O)O)cn4-c3ccc(F)cc3)C2)cc1 (configuration not stated)        233 to 234 °C

Continue with the next molecule.
Supply melting point value. Item: O=C(/C=C/c1ccccc1)N1CCCC1 100 °C

* * *

Documented melting point across a set of compounds

Please review the following examples before continuing.
>>> df
                                   compound  experimental_result
0     CSc1cnn(-c2c(Cl)cc(C(F)(F)F)cc2Cl)c1N        106 to 108 °C
1  CNS(=O)(=O)c1ccc(-c2cnc3[nH]cc(C(=O)C(C)(C)C)c3n2)cc1        278 to 280 °C
2  O=C(Nc1ccc(CN2CCNCC2)cc1)c1cc(=O)c2ccccc2o1        138 to 140 °C

Supply melting point value. Item: CC(C)(OCc1cc2nc(Cl)ccc2n1S(=O)(=O)c1ccc2c(c1)CCO2)C(=O)O 169 °C

Supply melting point value. Item: CCn1cc(C)c(=S)[nH]c1=O 205 to 206 °C

Supply melting point value. Item: O=C(NCCCN1CCC(c2ccccc2)(c2ccccc2)CC1)N1CCOCC1c1ccc(F)c(F)c1 (centres undefined) 71 to 74 °C

Supply melting point value. Item: CC(C)c1[nH]n(-c2c(Cl)cc(Cl)cc2Cl)c2nc(Cc3ccc(N(C(=O)OC(C)(C)C)C(=O)[C@@H]4CCCN4)cc3)nc(=O)c1-2 225 to 226 °C

Supply melting point value. Item: CC(C)c1ccc(NC(=O)N(C)C2N(C)C(c3ccc(F)cc3)=NC2(C(F)(F)F)C(F)(F)F)cc1 (centres undefined) 203 to 204 °C

Supply melting point value. Item: CC(C)Oc1ccc(NC(=O)C2(C)CC2)cc1C(F)(F)F 106 to 109 °C

Supply melting point value. Item: CSc1nc(N)nc2c1ncn2COCCO 188 to 191 °C

Supply melting point value. Item: CC(C)(C)C(=O)ON1C(C)(C)CC(OC(=O)c2ccccc2)CC1(C)C 107 to 110 °C

* * *

Property: melting point

Please review the following examples before continuing.
                                   compound       property  experimental_result
0  CN1Cc2ccccc2C(=O)c2cc(CC(=O)O)cc([N+](=O)[O-])c21  melting point        184 to 186 °C
1  CCN(C)C(=O)N1N=C2c3cc(F)ccc3OC[C@@H]2[C@@H]1c1ccccc1 (racemic)  melting point        133 to 137 °C
2  CON1CCC2(CC1)C(O)=C(c1c(C)cc(C)cc1C)C(=O)N2OC1CCCCC1  melting point        115 to 118 °C
3  COc1ccc(CN2C(=O)C3(COc4cc5c(cc43)OCCO5)c3ccccc32)cn1 (centres undefined)  melting point        161 to 162 °C
4  CCOC(=O)c1nc(-c2ccc([N+](=O)[O-])c(C)c2)[nH]c1-c1ccc(OC)cc1  melting point        187 to 191 °C
5  COc1cc(C)cc(-c2nn(CC#N)cc2-c2cc(NC[C@H](C)O)nc(Cl)n2)c1  melting point               197 °C
6  O=C(O)Cc1coc2cc(OCc3cc(-c4ccc(Cl)cc4)on3)ccc12  melting point        193 to 194 °C
7  CN1C(=O)CC(c2ccccc2)C1C(O)C=Cc1ccc(F)cc1 (centres undefined)  melting point        189 to 191 °C
8  COc1cc(Cn2c(-c3ccc(O)cc3)c(C)c3cc(O)ccc32)ccc1OCCN1CCCCCC1  melting point        142 to 146 °C
9      CCCCCCNc1cc(-c2nc(=O)c3ccccc3s2)ccn1  melting point        134 to 135 °C

Supply melting point value. Item: CN(C)C(=O)n1oc(CCl)cc1=O 89 to 90 °C

Supply melting point value. Item: O=C(O)CCn1ccn([C@H]2CCc3c(F)cc(F)cc3C2)c1=S 182 to 184 °C

Supply melting point value. Item: CCOC(=O)c1cnoc1-c1cccc(Cl)c1 75 to 77 °C

Supply melting point value. Item: Cc1cccc(NC(=O)NC(CC(=O)N(CC(=O)OC(C)(C)C)c2ccccc2)c2ccccc2)c1 (racemic) 164 °C

Supply melting point value. Item: CN1C=NN(c2cccc(N)c2)N1 93 to 95 °C

Supply melting point value. Item: COc1ccc(-c2c(Cl)c(CN3CCCCC3=O)nc3sc4c(c23)CCN(Cc2ccccc2)C4)cc1OC 113 to 114 °C

Supply melting point value. Item: CCOC(=O)C(Cc1ccc(OCCN2CCC(C)(C)c3cc(C(=NOC)c4ccccc4)ccc32)cc1)Oc1ccc(C(F)(F)F)cc1 (centres undefined) 44 to 46 °C

Supply melting point value. Item: Nc1nc(SC2C=CCCC2)c2ncn(C3C=CC(CO)C3)c2n1 (centres undefined) 138 to 140 °C

Supply melting point value. Item: CN(C)C1(c2ccccc2)CCC(=CC(=O)NCc2ccccc2)CC1 (centres undefined) 145 to 148 °C

* * *

Property: melting point

Please review the following examples before continuing.
In [3]: df
Out[3]:
                                   compound  experimental_result
0  CCN(CC)C(=O)COc1ccn2nc(-c3ccccc3)c(-c3ccc(=O)n(C(C)C)n3)c2c1        125 to 126 °C
1  C#Cc1cc(Nc2ncnc3cnc(NC(=O)/C=C/CN(C)C)cc23)ccc1Cl        173 to 176 °C
2  C[C@H](NC(C#N)CCc1ccccc1)C(=O)O (stereo partly specified)               115 °C
3                     Cc1cccc(NC2=NCCO2)c1C        112 to 114 °C
4                   O=C(Nc1ccccc1)C1=NOCCS1        109 to 110 °C
5         COc1ccc(C(=O)c2ccc(Br)cc2)c(C)c1F          93 to 95 °C

Continue with the next compound.
Supply melting point value. Item: CCN(CC)C(C)COc1ccccc1C(=O)O (stereo unspecified) 137 to 140 °C

* * *

Property: melting point

Please review the following examples before continuing.
                           smiles_structure  experimental_result
0  CCOC(=O)c1cnc2c(c(C)nn2C)c1N(C)S(=O)(=O)c1ccc(Oc2ccncc2)cc1        117 to 119 °C
1  Cn1c(=O)c(C(=O)O)nc2cc(F)c([N+](=O)[O-])cc21        173 to 175 °C
2  O=C(NCc1ccc(Cl)cc1)c1cnc2cc(-n3cccc3)ccc2c1O             > 200 °C
3                    CNC(=O)Nc1ccc(Cl)cc1Cl               214 °C

Supply melting point value. Item: CCCCCCCCCCCCCCCCCCOc1cc(OCCCOc2ccccc2)cc(C(=O)O)c1 79 to 81 °C

* * *

Documented melting point across a set of compounds

Please review the following examples before continuing.
>>> df
                                   compound       property  experimental_result
0  O=C(NCc1cncc(F)c1)c1ccc(S(=O)(=O)n2cc(-c3ccccc3)c3ccccc32)cc1  melting point               131 °C
1  COc1ccc(CC2NC(=O)NC2=O)cc1OCc1ccccc1 (racemic)  melting point        155 to 157 °C
2  CCOC(=O)c1ccc(Cn2c(C)nc3ccc(C(=O)NS(=O)(=O)c4ccccc4)nc32)c(Cl)c1  melting point        196 to 197 °C
3  COc1cccc(C(=O)N2CCc3cc(OCc4ccccc4)c(OC)cc3C2=O)c1  melting point        141 to 143 °C
4  CN(C)CCN(C)C(=O)Cc1ccc(NC(=O)OCc2ccccc2)cc1  melting point        109 to 110 °C

Supply melting point value. Item: N[C@@H](CCCCNC(=O)NCc1ccccc1)C(=O)N1CC(F)(F)C(F)(F)C1 89 to 92 °C

Supply melting point value. Item: NS(=O)(=O)c1nnc(NC(=O)c2cnn3c(C(F)(F)F)cc(-c4ccc(C(F)(F)F)cc4)nc23)s1 280 °C

All values here come from a melting point compilation (Tetko et al.; mined from patent text by program, amines drawn as free bases though some values may be those of a salt).
